test system: HIV-1 (NL4-3 strain); test: Assay for Inhibition of HIV Replication (kinetic assay, MT4-gag-GFP reporter cell line; VIKING); format: cell-based; settings: MT4-GFP cells infected with HIV-1 NL4-3; 100% normal human serum (NHS); read-out: VIKING IP50 (nM) with 100% NHS
property_name: log10(IC50) (log10 of the value in nM)
Friendly reminder: values = log10 of IC50, unit nM.

Sample records with log10(IC50):
| molecule | assayed_system | log10(IC50) |
| --- | --- | --- |
| CC12OCCCN1C(=O)c1c(O)c(=O)c(C(=O)NCc3ccc(F)cc3F)c3n1C2CC3 (stereo not drawn) [Compound 135] | HIV-1 (NL4-3 strain) | 3.11 |
| COC1CC2C3OCCN3C(=O)c3c(O)c(=O)c(C(=O)NCc4ccc(F)cc4F)c1n32 (single isomer, unassigned) [Compound 77] | HIV-1 (NL4-3 strain) | 3.33 |
| O=C(NCc1cccc(F)c1F)c1c2n3c(c(O)c1=O)C(=O)N1C4CCC(C4)OC1C3CC2 (stereo not drawn) [Compound 164] | HIV-1 (NL4-3 strain) | 3.14 |
| O=C(NCc1ccc(F)cc1)c1c2n3c(c(O)c1=O)C(=O)N1CCCOC1C3CC2 (single isomer, unassigned) [Compound 52] | HIV-1 (NL4-3 strain) | 3.53 |

Prompt: Return reported log10(IC50). Input molecule: O=C(NCc1ccc(F)cc1F)c1c2n3c(c(O)c1=O)C(=O)N1CCCOC1C3CC2 (single isomer, unassigned) [Compound 57]
Completion: 2.94

Prompt: State its log10(IC50): COC1CC2C3OCCN3C(=O)c3c(O)c(=O)c(C(=O)NCc4ccc(F)cc4F)c1n32 (single isomer, unassigned) [Compound 75]
Completion: 3.79

Prompt: Return log10(IC50) (reported value) for this molecule: CCNC1CC2C3OCCCN3C(=O)c3c(O)c(=O)c(C(=O)NCc4ccc(F)cc4F)c1n32 (stereo not drawn) [Compound 205]
Completion: 2.06

Prompt: Specify reported log10(IC50) for the molecule shown: CCNC1C[C@H]2[C@H]3OC4CCC(C4)N3C(=O)c3c(O)c(=O)c(C(=O)NCc4ccc(F)cc4F)c1n32 (stereo partly drawn) [Compound 177]
Completion: 2.28

Prompt: Using known records, supply log10(IC50) for O=C(NCc1ccc(F)c(Cl)c1)c1c2n3c(c(O)c1=O)C(=O)N1CCOC1C3CC2 (single isomer, unassigned) [Compound 22]
Completion: 2.70

Where do the numbers come from? From patent US10829499B2.
